Origin of values: PubChem BioAssay (NCI)

Test system: SNB-19 CNS
protocolDescription: NCI-60 one-dose screen, 48 h
conditionDescription: 10 µM unless noted
Compounds without any hit were thinned out: in the full panel of roughly 83,000, 20% have a hit. Active and inactive are the calls of the source. The calls were made as follows: active = growth percent below 10; inactive = the rest.
// allowed return values: active, inactive

Please review the following examples before continuing.
{"testSmiles": "Cc1cc(C)on1", "assayTarget": "SNB-19 CNS", "labelValue": "inactive"}
{"testSmiles": "COc1ccc(-c2cc(-c3cc(OC)ccc3O)[nH]c(=O)c2C#N)cc1", "assayTarget": "SNB-19 CNS", "labelValue": "inactive"}
{"testSmiles": "CCN(CC)S(=O)(=O)c1ccc(O)c(NC(=O)c2[nH]c(C)c(C(C)=O)c2CCc2ccc(Cl)cc2)c1", "assayTarget": "SNB-19 CNS", "labelValue": "inactive"}
{"testSmiles": "C[C@@H](C[C@H](CCOCc1cccnc1)c1ccccc1)c1cc2ccccc2o1", "assayTarget": "SNB-19 CNS", "labelValue": "inactive"}
{"testSmiles": "NS(=O)(=O)Oc1ccc(NC(=O)C23CC4CC(CC(C4)C2)C3)cc1Cl", "assayTarget": "SNB-19 CNS", "labelValue": "inactive"}

Prompt line: # fetch the recorded call for CC(C)(C)N1CC(OC(N)=O)C1 here
Response line: inactive

Prompt line: # fetch the recorded call for CCCCCCNCc1cc(C(C)(C)C)cc(CNCCCCCC)c1O here
Response line: active

Prompt line: # fetch the recorded call for Cn1nnnc1-c1ccc(N)cc1 here
Response line: inactive

Prompt line: # fetch the recorded call for CCCn1nc(-c2ccccc2)c2c(-c3ccccc3)onc2c1=O here
Response line: inactive

Prompt line: # fetch the recorded call for COc1ccc(/C(C)=C(\c2ccc(Cl)cc2)c2ccc(OCCCN(C)C)cc2)cc1F here
Response line: inactive

Prompt line: # fetch the recorded call for CCN(CC)N=Nc1nn(C(=O)Nc2ccc(Cc3ccccc3)cc2)c2ccc(Cl)cc12 here
Response line: inactive

---

Tested on: M14 melanoma
protocolDescription: NCI-60 one-dose screen, 48 h (100 = growth as untreated, 0 = no growth, -100 = all killed)
conditionDescription: 10 µM unless noted
The panel holds about 83,000 compounds, 20% with a hit somewhere; the sample as a whole holds those more often.
Field: label. Allowed values: 1 (growth < 20%) or -1 (growth >= 20%).

Please review the following examples before continuing.
{"compound": "O=C(c1ccccc1)c1ccc(Cl)c([N+](=O)[O-])c1", "labelValue": -1}
{"compound": "Cc1ccc(NSc2ccccc2[N+](=O)[O-])cc1", "labelValue": 1}
{"compound": "CCOC(=O)c1sc2ccc(NCc3nc[nH]c3C)cc2c1NC(=O)c1cc(OC)c(OC)c(OC)c1", "labelValue": -1}
{"compound": "CCCCNCC(=O)Nc1ccc(C(=O)OCC)cc1", "labelValue": -1}
{"compound": "O=C1CSC(c2ccccc2)N1c1ccccc1 (stereo not given)", "labelValue": -1}

Prompt line: Confirm or reject: growth of O=C(NCOC(O)C(Cl)(Cl)Cl)NCOC(O)C(Cl)(Cl)Cl (stereo not given) lies strictly below 20%
Response line: -1

Prompt line: Confirm or reject: growth of CCCc1nc2ccccn2c1Nc1ccc(C(=O)NO)cc1 lies strictly below 20%
Response line: -1

Prompt line: Confirm or reject: growth of Cn1cc(Nc2nccc(-c3ccc(N4CCCC4)c(C#N)c3)n2)cn1 lies strictly below 20%
Response line: 1

Prompt line: Confirm or reject: growth of Clc1ccc(-c2nc(NCCc3ccccc3)nc3c(NCCc4ccccc4)cnn23)cc1 lies strictly below 20%
Response line: -1

Prompt line: Confirm or reject: growth of CC(C)(C)Nc1c(-c2c3ccccc3cc3ccccc23)nc2ccccn12 lies strictly below 20%
Response line: -1

Prompt line: Confirm or reject: growth of C=C(C)[C@@H]1CC[C@]2(CN)CC[C@]3(C)[C@H](CC[C@@H]4[C@@]5(C)CCC(N)[C@@](C)(CO)[C@@H]5CC[C@]43C)[C@@H]12 (stereo not given in full) lies strictly below 20%
Response line: 1

Prompt line: Confirm or reject: growth of COc1cc2oc3cc(C)oc(=O)c3c2cc1OC lies strictly below 20%
Response line: -1

Prompt line: Confirm or reject: growth of C=CC(=O)N[C@@H](Cc1ccc(-c2cc(Cl)cc(Cl)c2)cc1)[C@@H](O)[C@H](O)C(=O)O lies strictly below 20%
Response line: -1

Prompt line: Confirm or reject: growth of Oc1[nH]c2ccccc2c1/C=c1/cc2c(c(-c3ccc(F)cc3)n1)=Nc1ccccc1-2 lies strictly below 20%
Response line: 1

Prompt line: Confirm or reject: growth of CCO/C=N/C1=C(C#N)C(c2ccc(OC)cc2)c2c(c3ccccc3n(C)c2=O)O1 (stereo not given) lies strictly below 20%
Response line: -1

Prompt line: Confirm or reject: growth of N#Cc1cnn2c(-c3ccc(Cl)cc3)nc(NC3CC3)nc12 lies strictly below 20%
Response line: -1

Prompt line: Confirm or reject: growth of COc1cccc(CCC2CCCN(c3cc(C)nc(N)n3)C2)c1 (stereo not given) lies strictly below 20%
Response line: 1

Prompt line: Confirm or reject: growth of CCCCN(CCCC)CCCn1c(=O)c2sc3ncccc3c2n2nnc(-c3ccccc3)c12 lies strictly below 20%
Response line: -1

Prompt line: Confirm or reject: growth of O=C(CC12CC3CC(CC(C3)C1)C2)NCCOCCOCCOCCNC(=O)c1cc2c(o1)C(=O)c1ccccc1C2=O lies strictly below 20%
Response line: 1

Prompt line: Confirm or reject: growth of Cl.Fc1c[c-]c(-c2ccccn2)c(F)c1.[Pt].c1ccc([PH+](c2ccccc2)c2ccccc2[PH+](c2ccccc2)c2ccccc2)cc1 lies strictly below 20%
Response line: 1

---

Test system: HCC-2998 colon
protocolDescription: NCI-60 one-dose screen, 48 h (100 = growth as untreated, 0 = no growth, -100 = all killed)
conditionDescription: 10 µM unless noted
Compounds without any hit were thinned out: in the full panel of roughly 83,000, 20% have a hit.
endpointLabel: growth (%)
Please state the figure in %; there is no need to write the unit.

{"compound": "CN1CCN(C(=O)[C@]23CCC(C)(C)C[C@@H]2C2=CC[C@@H]4[C@@]5(C)Cc6c([nH]c7ccccc67)C(C)(C)[C@@H]5CC[C@@]4(C)[C@]2(C)CC3)CC1", "growth (%)": 99.4}
{"compound": "N#Cc1cccc(-c2nc3ccccn3c2NCCN2CCOCC2)c1", "growth (%)": 96.1}
{"compound": "C[N+](C)(C)CCOC(OCC[N+](C)(C)C)(c1ccccc1)c1ccccc1", "growth (%)": 97}

So for CCn1c(Sc2nnc(NC(=O)CCN3CCCC3)s2)nc2c1c(=O)n(C)c(=O)n2C , the logged growth turned out to be 114

So for O=C1N(c2ccccc2)C(=S)N[C@]12[C@H](c1ccccc1)C1CCCN1[C@]21C(=O)NC2C=CC(Cl)=C[C@H]21 (stereo not given in full) , the logged growth turned out to be 103

So for CC(=O)C(C(C)=O)c1nc2sc3cc(Cl)ccc3n2c(=N)c1C#N , the logged growth turned out to be 106

So for CCCCS(=O)(=O)Oc1ccc(-c2nc(C)c(C(=O)OCC)s2)cc1C=O , the logged growth turned out to be 94.4

So for CCCCCCCC/C=C\CCCCCCCC(=O)Oc1cccc2cccnc12 , the logged growth turned out to be 106

So for O=C1CC(c2ccc3c(c2)OCO3)Nc2cc3c(cc21)OCO3 (stereo not given) , the logged growth turned out to be 17.6

So for Cc1ccc(C)c2c1C(=O)OC2=O , the logged growth turned out to be 118

---

Tested on: UACC-257 melanoma
protocolDescription: NCI-60 one-dose screen, 48 h (100 = growth as untreated, 0 = no growth, -100 = all killed)
conditionDescription: 10 µM unless noted
Compounds without any hit were thinned out: in the full panel of roughly 83,000, 20% have a hit.
endpointLabel: growth (%)
Please state the figure in %; there is no need to write the unit.

{"compound": "COc1cc2c(c(OC)c1OC)C(=O)/C(=C/c1cc(C)c(O)c(C)c1)S2", "growth / %": 78.2}
{"compound": "CCN(CCO)CC(=O)c1cc(Cl)cc(Cl)c1Cl", "growth / %": 102}
{"compound": "CCCCN1CCN(c2ccc3nc(-c4ccc5nc(-c6cc(OC)c(OC)c(OC)c6)[nH]c5c4)[nH]c3c2)CC1", "growth / %": 87.9}
{"compound": "CCCCCCN(CCCCCC)CC(O)c1cccc2ccc(Cl)cc12 (centres undefined)", "growth / %": 74.4}
{"compound": "CCCCN(Cc1ccc(C(=O)NO)cc1)C(=O)Nc1ccc(OCCCCCCCCCn2cc(CCCCC(=O)N[C@H](C(=O)N3C[C@H](O)C[C@H]3C(=O)NCc3ccc(-c4scnc4C)cc3)C(C)(C)C)nn2)cc1", "growth / %": 60}

So for Fc1ccc(Nc2ccc3cc(OCCCN4CCOCC4)ccc3n2)cc1F , the logged growth turned out to be 30.4

So for COc1ccc(-n2nnc(C(=O)NCCc3c[nH]c4ccc(F)cc34)c2C)cc1 , the logged growth turned out to be 87.7

So for Cc1cc(-c2noc(C(F)(F)F)n2)ccc1N1CCN(c2cc(C(=O)N(C)C)no2)CC1 , the logged growth turned out to be 54

So for O=c1[nH]c(=O)n(C2CC(O)C(CO)O2)cc1CO (centres undefined) , the logged growth turned out to be 103
